- assay.system: human recombinant H-PGDS (Homo sapiens)
- protocol.description: Fluorescence Intensity h-PGDS TBA Enzyme Assay
- Assay type: biochemical
- measurement.conditions: 1:175,000 human recombinant H-PGDS, highest inhibitor concentration typically 1 μM
pIC50: −log10 of the molar value.
Use 8 as the dividing line for pIC50, with the line itself on the MET side and lower values as NOT MET.

                                   compound  answer_label
0  CCOC(=O)c1nnc(CNC(=O)c2ccc(-c3cccc(F)c3)nc2)o1       NOT MET
1  O=C(Nc1cccnc1)c1ccc(-c2ccccc2)nc1 [Example 354, 6-Phenyl-N-pyridin-3-ylnicotinamide]           MET
2  CC(C)c1noc(CNC(=O)c2ccc(-c3cccc(F)c3)nc2)n1       NOT MET
3  O=C(NCc1ccccc1F)c1ccc(-c2ccccc2)nc1 [Example 380, N-(2-Fluorobenzyl)-6-phenylnicotinamide]           MET
4    Cc1cc(Br)ccc1NC(=O)c1ccc(-c2ccccc2)nc1           MET
5  Cc1cccc(-c2ccc(C(=O)NC(=O)[C@@H](N)C(C)C)cn2)c1       NOT MET
6  COc1cccc(-c2ccc(C(=O)NC3CCN(Cc4ccc(Cl)c(Cl)c4)C3=O)cn2)c1 (centres unmarked)       NOT MET
7  COc1ccc(CNC(=O)c2ccc(-c3ccc(F)cc3)nc2)cc1OC       NOT MET

----------
- assay.system: human recombinant H-PGDS (Homo sapiens, UniProt O60760)
- Sequence (O60760 whole entry): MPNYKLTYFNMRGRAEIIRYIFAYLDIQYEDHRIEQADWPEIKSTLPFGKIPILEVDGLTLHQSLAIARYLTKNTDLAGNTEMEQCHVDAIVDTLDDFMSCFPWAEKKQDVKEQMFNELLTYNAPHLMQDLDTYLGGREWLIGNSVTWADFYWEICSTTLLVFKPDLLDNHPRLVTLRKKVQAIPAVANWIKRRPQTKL
- protocol.description: Fluorescence Intensity h-PGDS TBA Enzyme Assay
- Format: biochemical
- measurement.conditions: 1:175,000 human recombinant H-PGDS, highest inhibitor concentration typically 1 μM
pIC50: −log10 of the molar value.
quantity: pIC50

>>> print(df.to_string())
                                    compound  inequality_operator  observed
 0  COC(=O)CC(NC(=O)c1ccc(-c2cccc(F)c2)nc1)c1cccnc1 (stereo not drawn)                    =      7.28
 1  O=C(NCCN1CCC(O)CC1)c1ccc(-c2cccc(F)c2)nc1                    =      7.51
 2  NS(=O)(=O)c1ccc(CNC(=O)c2ccc(-c3ccc(F)cc3)nc2)cc1                    ≤      6.00
 3  COc1cccc(-c2ccc(C(=O)NCC(C)(C)CN(C)C)cn2)c1                    ≤      6.00
 4  COc1cc(CCNC(=O)c2ccc(-c3cccc(F)c3)nc2)cc(OC)c1O                    =      8.31
 5  CCOC(=O)C1(NC(=O)c2ccc(-c3cccc(C)c3)nc2)CCOCC1                    =      7.03
 6   CCOC(=O)CCCNC(=O)c1ccc(-c2ccc(F)cc2)nc1                    =      6.29
 7  O=C(NCc1cc(F)cc2c1OCOC2)c1ccc(-c2ccc(F)cc2)nc1                    =      6.59
 8  CCn1cc(-c2nnc(CCNC(=O)c3ccc(-c4cccc(F)c4)nc3)o2)cn1                    =      7.51
 9  O=C(NCc1ccco1)c1ccc(-c2ccccc2)nc1 [Example 379, N-(2-Furylmethyl)-6-phenylnicotinamide]                    =      8.32
10  COc1ccc(OC)c(C(O)CNC(=O)c2ccc(-c3cccc(F)c3)nc2)c1 (stereo not drawn)                    =      8.09
11  O=C(N[C@@H]1C[C@H]2CC[C@@H](C1)N2C(=O)NCCO)c1ccc(-c2cccc(F)c2)nc1                    =      7.46
12  Cc1cc(C(F)(F)F)nc(CNC(=O)c2ccc(-c3cccc(F)c3)nc2)n1                    =      6.84
13  Cc1cccc2c1OCCC2NC(=O)c1ccc(-c2cccc(F)c2)nc1 (stereo not drawn)                    =      8.40
14  Cc1cccc(-c2ccc(C(=O)NCCN3CCN(Cc4ccccc4)CC3)cn2)c1                    =      7.53
15     COC(=O)CNC(=O)c1ccc(-c2cccc(OC)c2)nc1                    =      6.08
16  CS(=O)(=O)c1cccc(CNC(=O)c2ccc(-c3cccc(F)c3)nc2)c1                    =      8.17
17  Cc1cccc(-c2ccc(C(=O)NCCC3CCCCO3)cn2)c1 (stereo not drawn)                    =      7.76
18  O=C(NCCCN1CCCC1=O)c1ccc(-c2cccc(F)c2)nc1                    =      7.80
19  CCOC(=O)CC(NC(=O)c1ccc(-c2cccc(OC)c2)nc1)c1ccccc1Cl (stereo not drawn)                    =      6.60
20  CN1CCN(CC(NC(=O)c2ccc(-c3cccc(F)c3)nc2)c2ccccc2)CC1 (stereo not drawn)                    =      6.96
21   COc1ccc(NC(=O)c2ccc(-c3ccccc3)nc2)cc1OC                    =      9.02
22   O=C(NCCNc1ccccc1)c1ccc(-c2cccc(F)c2)nc1                    =      7.66
23  COC(=O)[C@H](Cc1ccc(Cl)cc1)NC(=O)c1ccc(-c2cccc(F)c2)nc1                    =      6.62
24  Cc1ccc2c(c1C)OCCC2NC(=O)c1ccc(-c2cc(F)cc(F)c2)nc1 (stereo not drawn)                    =      7.52
25  Cc1cccc(-c2ccc(C(=O)NCCN3CCCCC3=O)cn2)c1                    =      7.25
26  CS(=O)(=O)Cc1noc(CNC(=O)c2ccc(-c3ccc(F)cc3)nc2)n1                    ≤      6.00
27  O=C(NC(c1cccc(Cl)c1)c1nn[nH]n1)c1ccc(-c2cccc(F)c2)nc1 (stereo not drawn)                    =      7.81
28  Cc1cccc(-c2ccc(C(=O)NC3CCOC3=O)cn2)c1 (stereo not drawn)                    =      7.13
29  CN1CCN(CC(CNC(=O)c2ccc(-c3cccc(F)c3)nc2)c2ccccc2)CC1 (stereo not drawn)                    =      6.50
30  Cc1cc(C(F)(F)F)nc(CCNC(=O)c2ccc(-c3cccc(F)c3)nc2)n1                    =      7.74
31  COc1cccc(-c2ccc(C(=O)NCCN3CCCC3=O)cn2)c1                    =      6.12
32  CCOC(=O)CC(C)NC(=O)c1ccc(-c2cccc(F)c2)nc1 (stereo not drawn)                    =      8.06
33  O=C(NCCC1CCCCO1)c1ccc(-c2cccc(F)c2)nc1 (stereo not drawn)                    =      8.24
34  Cc1cccnc1CC(C)NC(=O)c1ccc(-c2cccc(F)c2)nc1 (stereo not drawn)                    =      8.54
35  COc1cccc(-c2ccc(C(=O)NCc3cccc(S(C)(=O)=O)c3)cn2)c1                    =      6.67

FYI, the data here is from patent US20110306597A1.
